Values were extracted from patent US20220242950A1.

target.entity: T1, recombinant hIL1RAP Domain1+2+3 (aa21-367) (human, UniProt Q9NPH3 21-367)
T1 construct: Numbering on Uniprot Q9NPH3
T1 sequence (looked up): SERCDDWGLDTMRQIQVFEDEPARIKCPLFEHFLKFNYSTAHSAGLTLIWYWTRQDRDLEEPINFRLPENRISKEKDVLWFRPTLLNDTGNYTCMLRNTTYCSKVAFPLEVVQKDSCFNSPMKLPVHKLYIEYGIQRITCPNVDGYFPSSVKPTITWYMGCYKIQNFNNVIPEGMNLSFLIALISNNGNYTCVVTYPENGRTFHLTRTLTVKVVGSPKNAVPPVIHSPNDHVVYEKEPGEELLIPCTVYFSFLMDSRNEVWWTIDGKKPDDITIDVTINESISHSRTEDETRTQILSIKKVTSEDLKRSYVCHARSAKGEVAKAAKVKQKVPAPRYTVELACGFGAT
assay.summary: bio-layer interferometry, human IL1RAP
value.type: Kd
Answer shape: numeric part, then the unit.

[
  {
    "binder": "h48D2 VH5:VL3 (antibody, human IgG1, kappa, L234A L235A, V domains shown, Humanized; also called VL3:VH5) VH: QEQLEESGGGLVKPGGTLSLTCTVSGPSLSHFDITWIRQAPGSGLEWIGTISPGVSTYYASWAKSRVTISVDTSLNTVSLKLSSVTAADTATYFCARGGVGSSWKAFDLWGPGTLVTISS VL: DILLTQTPSVVSASVGDRVTITCQASESISTALAWYQQKPGQAPRLLIYKASTLPSGVPSRFRGSGSGTDFTLTITSLQPEDFATYYCQQGFSSGNVHNAFGGGTRLEIKR",
    "result": "2.33 nM"
  },
  {
    "binder": "h48D2 VH4:VL4 (antibody, human IgG1, kappa, L234A L235A, V domains shown, Humanized; also called VL4:VH4) VH: QVQLQESGPGLVKPSETLSLTCTVSGPSLSHFDITWIRQPPGKGLEWIGTISPGVSTYYASWAKSRFTISVDTSKNQFSLKLTSVTAADTATYYCARGGVGSSWKAFDLWGPGTLVTVSS VL: ELVMTQSPSSVSASVGDRVTITCQASESISTALAWYQQKPGKAPKLLIYKASTLPSGVPSRFSGSGSGTDFTLTINSLQPEDFATYYCQQGFSSGNVHNAFGGGTKVEIKR",
    "result": "22.8 nM"
  },
  {
    "binder": "h48D2 VH2:VL1 (antibody, human IgG1, kappa, L234A L235A, V domains shown, Humanized; also called VL1:VH2) VH: EVQLVESGGALVQPGGSLRLSCIVSGPSLSHFDITWFRQAPGKGLEWVATISPGVSTYYASWAKSRFTISTDTSKNTLFLQMDSLRAEDTAVYYCARGGVGSSWKAFDLWGPGTLVTVSS VL: DIVMTQSPSSLSASVGDRVTITCQASESISTALAWYQQKPGKAPKLLIYKASTLPSGVPSRFSGSGSGTDFTLTISSLQPEDFATYYCQQGFSSGNVHNAFGGGTKVVIKR",
    "result": "13.2 nM"
  }
]

Quick batch: Kd for everything below.
1. h48D2 VH1:VL1 (antibody, human IgG1, kappa, L234A L235A, V domains shown, Humanized; also called VL1:VH1) VH: EVQLEESGGGLVKPGGSLRLSCAASGPSLSHFDITWVRQAPGKGLEWVSTISPGVSTYYASWAKSRFTISRDNSKNTLYLQMNSLRAEDTAVYYCARGGVGSSWKAFDLWGRGTLVTVSS VL: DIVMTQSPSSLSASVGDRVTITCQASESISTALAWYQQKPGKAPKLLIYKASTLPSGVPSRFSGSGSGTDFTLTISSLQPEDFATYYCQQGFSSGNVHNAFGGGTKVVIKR
2. h48D2 VH1:VL3 (antibody, human IgG1, kappa, L234A L235A, V domains shown, Humanized; also called VL3:VH1) VH: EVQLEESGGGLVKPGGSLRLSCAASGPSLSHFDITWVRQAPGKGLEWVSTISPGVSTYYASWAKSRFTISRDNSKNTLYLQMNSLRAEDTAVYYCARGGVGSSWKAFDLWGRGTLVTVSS VL: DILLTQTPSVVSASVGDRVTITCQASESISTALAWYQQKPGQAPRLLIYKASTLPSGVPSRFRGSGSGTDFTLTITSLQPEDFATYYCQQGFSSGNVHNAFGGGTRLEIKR
3. h48D2 VH1:VL4 (antibody, human IgG1, kappa, L234A L235A, V domains shown, Humanized; also called VL4:VH1) VH: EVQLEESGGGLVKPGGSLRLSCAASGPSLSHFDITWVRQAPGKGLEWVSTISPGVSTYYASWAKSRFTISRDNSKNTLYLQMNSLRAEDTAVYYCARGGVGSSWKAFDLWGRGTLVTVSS VL: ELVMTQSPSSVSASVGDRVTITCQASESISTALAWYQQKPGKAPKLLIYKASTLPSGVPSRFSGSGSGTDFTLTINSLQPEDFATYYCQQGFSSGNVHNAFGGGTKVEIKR
4. h48D2 VH3:VL2 (antibody, human IgG1, kappa, L234A L235A, V domains shown, Humanized; also called VL2:VH3) VH: EVQLLESGGGLVLPGGSLRLSCAASGPSLSHFDITWVRQAPGKGLEWVSTISPGVSTYYASWAKSRFTISRDNSKNTLYLQMSSLRAEDTAVYYCARGGVGSSWKAFDLWGLGTTVTVSS VL: QIVLTQSPATLSASVGDRVTITCQASESISTALAWYQQKPGKAPKLLIYKASTLPSGVPSRFSGSGSGTEFTLTISSLQPDDSATYYCQQGFSSGNVHNAFGQGTKLEIKR
5. h48D2 VH4:VL3 (antibody, human IgG1, kappa, L234A L235A, V domains shown, Humanized; also called VL3:VH4) VH: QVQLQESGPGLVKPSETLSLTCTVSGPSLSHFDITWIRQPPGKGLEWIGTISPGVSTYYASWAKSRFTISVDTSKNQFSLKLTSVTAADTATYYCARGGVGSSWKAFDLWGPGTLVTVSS VL: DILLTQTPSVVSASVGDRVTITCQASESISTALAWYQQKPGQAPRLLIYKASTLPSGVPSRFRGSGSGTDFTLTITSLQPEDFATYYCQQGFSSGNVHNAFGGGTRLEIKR
6. h48D2 VH3:VL3 (antibody, human IgG1, kappa, L234A L235A, V domains shown, Humanized; also called VL3:VH3) VH: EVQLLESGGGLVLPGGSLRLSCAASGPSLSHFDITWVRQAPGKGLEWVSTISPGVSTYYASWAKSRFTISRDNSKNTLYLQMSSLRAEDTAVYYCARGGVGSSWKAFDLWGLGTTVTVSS VL: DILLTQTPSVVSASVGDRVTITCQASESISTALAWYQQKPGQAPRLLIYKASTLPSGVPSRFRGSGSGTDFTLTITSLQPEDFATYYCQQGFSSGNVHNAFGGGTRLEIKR
7. h48D2 VH4:VL5 (antibody, human IgG1, kappa, L234A L235A, V domains shown, Humanized; also called VL5:VH4) VH: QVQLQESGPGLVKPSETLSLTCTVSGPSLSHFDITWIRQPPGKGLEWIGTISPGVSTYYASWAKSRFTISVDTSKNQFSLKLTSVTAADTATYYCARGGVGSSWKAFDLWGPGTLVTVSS VL: APVLTQSPATLEASVGDRVTITCQASESISTALAWYQQKPGQPPKLLIYKASTLPSGVPSRFSGSGSGTEFTLTISDLESDDAATYYCQQGFSSGNVHNAFGGGTEVVVKR

**Result**
30.3 nM
35 nM
42.9 nM
22.4 nM
16.7 nM
27.4 nM
15 nM
